Overview of reported blood plasma ratio across a group of compounds:
# run.description: Ratio of drug level blood to plasma in human
# Format: ADME
# experimental.context: blood and plasma
Hey, just send me the number, nothing else.

Use these answered entries as a reference point.
line.notation	quantity.name	value.reported
CC(C)c1cccc(C(C)C)c1O	blood plasma ratio	0.88
COc1c(C)c2c(c(O)c1C/C=C(\C)CCC(=O)O)C(=O)OC2	blood plasma ratio	0.6

Okay, now this compound:
Query: Query (compound): `C=CCN1CC[C@]23c4c5ccc(O)c4O[C@H]2C(=O)CC[C@@]3(O)[C@H]1C5` ; field requested: blood plasma ratio
Response: 1

----------
# run.description: Fraction unbound in human intestinal microsomes at 5 uM after 30 to 60 mins by LC-MS/MS analysis
quantity.name: fraction unbound at 5 µM
Hey, just send me the number, nothing else.

Query: Query (compound): `CC(C)c1cccc(C(C)C)c1O` ; field requested: fraction unbound at 5 µM
Response: 0.69

----------
# run.description: Fraction unbound in human plasma
quantity.name: fraction unbound
Hey, just send me the number, nothing else.

Use these answered entries as a reference point.
line.notation	fraction unbound
C=CCN1CC[C@]23c4c5ccc(O)c4O[C@H]2C(=O)CC[C@@]3(O)[C@H]1C5	0.57
CC(C)c1cccc(C(C)C)c1O	0.015
CCCc1nc2c(C)cc(-c3nc4ccccc4n3C)cc2n1Cc1ccc(-c2ccccc2C(=O)O)cc1	0.005
Cc1ccc(C)c(OCCCC(C)(C)C(=O)O)c1	0.005

Okay, now this compound:
Query: Query (compound): `COc1c(C)c2c(c(O)c1C/C=C(\C)CCC(=O)O)C(=O)OC2` ; field requested: fraction unbound
Response: 0.01

----------
# run.description: Glucuronidation clearance in human liver microsomes
# Assay type: ADME
Note to self: values exactly at 4 mL/min/kg are TRUE. So CLhep predicted at or above 4 mL/min/kg is TRUE, below is FALSE.

Worked set:
line.notation	assigned.category
Cc1ccc(C)c(OCCCC(C)(C)C(=O)O)c1	FALSE
C=CCN1CC[C@]23c4c5ccc(O)c4O[C@H]2C(=O)CC[C@@]3(O)[C@H]1C5	TRUE
CC(C)c1cccc(C(C)C)c1O	FALSE

Kindly consider the entry below.
Query: Is the recorded value of CLhep predicted equal to or greater than 4 mL/min/kg for this compound? `CCCc1nc2c(C)cc(-c3nc4ccccc4n3C)cc2n1Cc1ccc(-c2ccccc2C(=O)O)cc1`
Response: TRUE

----------
# run.description: Fraction unbound in human kidney microsomes at 1 uM after 30 to 60 mins by LC-MS/MS analysis
# Type: ADME
Overview of reported fraction unbound at 1 µM across a group of compounds:

Query: Query (compound): `CCCc1nc2c(C)cc(-c3nc4ccccc4n3C)cc2n1Cc1ccc(-c2ccccc2C(=O)O)cc1` ; field requested: fraction unbound at 1 µM
Response: 0.48

Query: Query (compound): Cc1ccc(C)c(OCCCC(C)(C)C(=O)O)c1 [GEMFIBROZIL] ; field requested: fraction unbound at 1 µM
Response: 0.9

Query: Query (compound): O=C1[C@H](CC[C@H](O)c2ccc(F)cc2)[C@@H](c2ccc(O)cc2)N1c1ccc(F)cc1 [EZETIMIBE] ; field requested: fraction unbound at 1 µM
Response: 0.18

Query: Query (compound): O=C(O)Cc1ccccc1Nc1c(Cl)cccc1Cl [DICLOFENAC] ; field requested: fraction unbound at 1 µM
Response: 0.99

Query: Query (compound): C=CCN1CC[C@]23c4c5ccc(O)c4O[C@H]2C(=O)CC[C@@]3(O)[C@H]1C5 [NALOXONE] ; field requested: fraction unbound at 1 µM
Response: 1

Query: Query (compound): COc1c(C)c2c(c(O)c1C/C=C(\C)CCC(=O)O)C(=O)OC2 [MYCOPHENOLIC ACID] ; field requested: fraction unbound at 1 µM
Response: 0.91
